Target: human C3 (human, UniProt P01024)
Assay: BLI
outcome measure: Kd (nM)

- C3I22 (antibody, V domains shown) VH: DVQLVESGGGLVQPGGSLRLSCTASGFTFGVYAMSWVRQAPGKGLEWVSSIDSGVNTAYADSVKGRFTISRDNAINTVFLQMNSLKPEDTAVYHCALGRESDYEPVTGSWGQGTQVTVSS: 3.9
- C3I3 (antibody, V domains shown) VH: DVQLVESGGGLVQPGGSLRLSCAASGFTLDNYAIAWFRQAPGKEREGVSCISSSRGSTAYEDSVKGRFTIARDNAKNTVYLQMNSLKPEDTAVYYCAARARGMCREFDYDYWGQGTQVTVSS: 17
- C3I8 (designed binder) DVQLVESGGGLVQPGGSLRLSCATSGFSFGVYDMSWVRQASGKGLEWVSGIDSGSNTAYADSVKVRFTISRDNAKNTLYLQMNNLKPEDTAVYYCALGRETDYIPVTDFRTQGTQVTVSS: 4.8
- C3N10 (antibody, V domains shown) VH: DVQLVESGGGLVQAGGSLRLACAASGLTFSPYAMGWFRQAPGKEREFVAGIRWISGNPYYADSVKGRFTISRDNAKNTVYLQMNSLKPEDTAVYSCAAAPLTRSYDYWGQGTQVTVSS: 7.6
- C3S8 (antibody, V domains shown) VH: QVQLQESGGGLVQAGGSLRLSCAASGTIFPTDRMGWYRQAPGKEREFVATIDLGGTTNYADSVKGRFTISRDNAKNTVYLQMNSLKPEDTAVYYCAAAWEGPSRYGRHRYYSHRYWGQGTQVTVSS: 14
- C3S6 (antibody, V domains shown) VH: QVQLQESGGGLVQAGGSLRLSCAASGNIFVGHGMGWYRQAPGKEREFVAAIGYGAITNYADSVKGRFTISRDNAKNTVYLQMNSLKPEDTAVYYCAASSYYPPRYWYWGQGTLVTVSS: 20
- C3S3 (antibody, V domains shown) VH: QVQLQESGGGLVQAGGSLRLSCAASGTIFSRNYMGWYRQAPGKERELVAGIGYGSSTNYADSVKGRFTISRDNAKNTVYLQMNSLKPEDTAVYYCAAVPTYRPYYFYWGQGTQVTVSS: 23
- C3I4 (antibody, V domains shown) VH: DVQLVESGGGLVQPGGSLRLSCATSGFTLDYYAIGWFRQAPGKEREGVSCITGPDGSTHYADSVKGRFTISRDNAKNTVYLQMNSLKPEDTAVYYCAATAGLYGCGYGMDHWGKGTQVTVSS: 27

FYI, the data here is from patent US20260347449.
